target: 5-lipoxygenase (Rattus norvegicus, UniProt P12527); construct: 20,000×g supernatant from 6×10^4 homogenized RBL-1 cells; endogenous in cells; test: 5-lipoxygenase inhibition, 20,000×g supernatant of homogenized RBL-1 cells, radiolabelled arachidonic acid; details: In vitro 5-lipoxygenase inhibitory potency; RBL-1 cell 20,000×g supernatant, 2% DMSO
Sequence (P12527 whole entry): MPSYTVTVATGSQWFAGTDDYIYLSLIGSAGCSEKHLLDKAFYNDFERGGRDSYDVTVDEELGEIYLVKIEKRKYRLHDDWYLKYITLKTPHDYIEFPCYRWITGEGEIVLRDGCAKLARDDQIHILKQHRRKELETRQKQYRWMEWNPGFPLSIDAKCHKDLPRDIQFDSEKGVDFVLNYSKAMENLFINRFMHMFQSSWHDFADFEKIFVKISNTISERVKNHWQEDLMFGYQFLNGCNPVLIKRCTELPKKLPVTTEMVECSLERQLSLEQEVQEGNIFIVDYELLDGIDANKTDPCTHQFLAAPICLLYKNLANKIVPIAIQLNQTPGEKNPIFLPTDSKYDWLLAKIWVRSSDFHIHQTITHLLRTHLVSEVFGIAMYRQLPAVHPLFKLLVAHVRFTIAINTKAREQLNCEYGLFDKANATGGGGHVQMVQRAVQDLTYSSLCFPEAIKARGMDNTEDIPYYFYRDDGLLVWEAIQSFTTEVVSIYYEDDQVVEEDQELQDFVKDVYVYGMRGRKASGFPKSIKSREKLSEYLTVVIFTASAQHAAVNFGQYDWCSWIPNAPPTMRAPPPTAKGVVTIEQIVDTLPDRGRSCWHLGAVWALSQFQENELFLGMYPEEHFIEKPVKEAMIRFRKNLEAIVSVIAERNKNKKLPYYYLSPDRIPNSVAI
Assay Readout: IC50 (µM)

1. CNC(=O)N(O)Cc1nc2ccccc2n1C
2. CC(c1nc2ccccc2s1)N(O)C(N)=O (centres unmarked)
Exercise: Which has the smaller recorded IC50, 1 or 2 ? API: response body contains the label of the selected item.
Key: 2

Values were extracted from patent US4822809A.
